All values here come from patent US20220387487A1.

# System: FMC63
# Sequence (as listed by the source): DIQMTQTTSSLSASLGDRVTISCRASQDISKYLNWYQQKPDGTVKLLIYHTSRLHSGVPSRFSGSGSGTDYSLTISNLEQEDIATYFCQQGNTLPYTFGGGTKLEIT
# Sequence (as listed by the source): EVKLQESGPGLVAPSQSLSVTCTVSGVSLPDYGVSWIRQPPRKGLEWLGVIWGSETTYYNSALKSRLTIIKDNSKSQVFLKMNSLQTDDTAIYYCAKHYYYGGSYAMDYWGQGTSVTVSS
# assayProcedure: CD19 variant binding to anti-CD19 antibody FMC63 (score)
# statedConditions: Table 1B, CD19 triple mutants
endpoint: FMC63 Binding Score
No unit in the answer, only the number.

Give the measured FMC63 Binding Score of W62W/F64T/F66A: CD19 variant (protein) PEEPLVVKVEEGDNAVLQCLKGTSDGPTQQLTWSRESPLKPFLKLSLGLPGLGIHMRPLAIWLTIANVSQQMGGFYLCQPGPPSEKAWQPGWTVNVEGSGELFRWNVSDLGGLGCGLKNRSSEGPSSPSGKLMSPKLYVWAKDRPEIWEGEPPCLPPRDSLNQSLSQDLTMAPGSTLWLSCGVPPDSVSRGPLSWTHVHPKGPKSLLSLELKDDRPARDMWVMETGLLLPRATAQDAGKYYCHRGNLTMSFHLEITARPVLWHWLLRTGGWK .
13.9
